Data provenance is ChEMBL document CHEMBL4229514.

Tested on: HeLa
Experiment: Antiproliferative activity against human HeLa cells after 48 hrs by MTT assay
Format: functional, cell-based
pIC50: −log10 of the molar value.
Here, each record is paired with measured pIC50 data.

>  <SMI>
O=C(N[C@H]1C[C@@H](C(=O)NO)N(S(=O)(=O)c2ccc(Oc3ccccc3)cc2)C1)c1cccc2no[n+]([O-])c12

>  <EXPERIMENTAL TARGET>
HeLa

>  <pIC50>
5.14

$$$$
>  <SMI>
COc1ccc(/C=C/C(=O)N2C[C@@H](NC(=O)c3cccc4no[n+]([O-])c34)C[C@H]2C(=O)NO)cc1OC

>  <EXPERIMENTAL TARGET>
HeLa

>  <pIC50>
4.85

$$$$
>  <SMI>
COc1ccc(/C=C/C(=O)N2C[C@@H](NC(=O)c3cccnc3)C[C@H]2C(=O)NO)cc1OC

>  <EXPERIMENTAL TARGET>
HeLa

>  <pIC50>
3.73

$$$$
>  <SMI>
COc1ccc(/C=C/C(=O)N2C[C@@H](NC(=O)c3ccc4no[n+]([O-])c4c3)C[C@H]2C(=O)NO)cc1OC

>  <EXPERIMENTAL TARGET>
HeLa

>  <pIC50>
5.19

$$$$
>  <SMI>
O=C(N[C@H]1C[C@@H](C(=O)NO)N(S(=O)(=O)c2ccc(Oc3ccccc3)cc2)C1)c1ccc2no[n+]([O-])c2c1

>  <EXPERIMENTAL TARGET>
HeLa

>  <pIC50>
5.42

$$$$

----------
Assay: Cytotoxicity against HUVEC after 48 hrs by MTT assay
Format: cell-based
Conditions: human, HUVEC cells
Hi! Could you tag entries with CC50 at 48 h below 40 µM as yes, and those at or above as no? Much appreciated.

>  <SMI>
O=C(N[C@H]1C[C@@H](C(=O)NO)N(S(=O)(=O)c2ccc(Oc3ccccc3)cc2)C1)c1cccc2no[n+]([O-])c12

>  <ASSIGNED CLASS>
yes

$$$$
>  <SMI>
COc1ccc(/C=C/C(=O)N2C[C@@H](NC(=O)c3ccc4no[n+]([O-])c4c3)C[C@H]2C(=O)NO)cc1OC

>  <ASSIGNED CLASS>
yes

$$$$
>  <SMI>
COc1ccc(/C=C/C(=O)N2C[C@@H](NC(=O)c3cccc4no[n+]([O-])c34)C[C@H]2C(=O)NO)cc1OC

>  <ASSIGNED CLASS>
no

$$$$
>  <SMI>
O=C(N[C@H]1C[C@@H](C(=O)NO)N(S(=O)(=O)c2ccc(Oc3ccccc3)cc2)C1)c1ccc2no[n+]([O-])c2c1

>  <ASSIGNED CLASS>
yes

$$$$

----------
Target: UniProt:P08253
Sequence (P08253 whole entry, the tested form may be a part): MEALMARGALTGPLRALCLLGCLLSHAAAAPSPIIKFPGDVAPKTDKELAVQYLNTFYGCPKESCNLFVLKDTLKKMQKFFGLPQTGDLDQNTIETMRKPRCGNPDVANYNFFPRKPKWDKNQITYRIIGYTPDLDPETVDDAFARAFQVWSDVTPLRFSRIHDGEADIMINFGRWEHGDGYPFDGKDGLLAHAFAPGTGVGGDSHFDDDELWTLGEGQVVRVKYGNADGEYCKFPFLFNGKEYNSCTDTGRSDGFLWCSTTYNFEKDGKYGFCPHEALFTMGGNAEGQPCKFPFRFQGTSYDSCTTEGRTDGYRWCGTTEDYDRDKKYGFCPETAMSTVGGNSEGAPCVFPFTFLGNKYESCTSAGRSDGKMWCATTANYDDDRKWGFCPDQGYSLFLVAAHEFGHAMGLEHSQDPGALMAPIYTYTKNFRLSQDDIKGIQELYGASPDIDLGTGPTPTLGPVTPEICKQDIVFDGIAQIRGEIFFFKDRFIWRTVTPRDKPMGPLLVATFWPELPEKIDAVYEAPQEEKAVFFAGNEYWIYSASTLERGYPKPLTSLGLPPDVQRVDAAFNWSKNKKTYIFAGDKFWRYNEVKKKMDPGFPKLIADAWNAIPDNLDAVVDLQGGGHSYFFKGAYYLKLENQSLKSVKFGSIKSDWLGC
Assay: Inhibition of recombinant human MMP2 catalytic domain (Tyr110 to Asp452 residues) preincubated for 45 mins followed by […] substrate addition by fluorescence assay
OBSERVATION TYPE: IC50 (nM)

>  <SMI>
O=C(N[C@H]1C[C@@H](C(=O)NO)N(S(=O)(=O)c2ccc(Oc3ccccc3)cc2)C1)c1cccc2no[n+]([O-])c12

>  <UNITS TEXT>
nM

>  <REPORTED>
182

$$$$
>  <SMI>
COc1ccc(/C=C/C(=O)N2C[C@@H](NC(=O)c3ccc4no[n+]([O-])c4c3)C[C@H]2C(=O)NO)cc1OC

>  <UNITS TEXT>
nM

>  <REPORTED>
345

$$$$
>  <SMI>
COc1ccc(/C=C/C(=O)N2C[C@@H](NC(=O)c3cccc4no[n+]([O-])c34)C[C@H]2C(=O)NO)cc1OC

>  <UNITS TEXT>
nM

>  <REPORTED>
414

$$$$
>  <SMI>
COc1ccc(/C=C/C(=O)N2C[C@@H](NC(=O)c3cccnc3)C[C@H]2C(=O)NO)cc1OC

>  <UNITS TEXT>
nM

>  <REPORTED>
266

$$$$
>  <SMI>
O=C(N[C@H]1C[C@@H](C(=O)NO)N(S(=O)(=O)c2ccc(Oc3ccccc3)cc2)C1)c1ccc2no[n+]([O-])c2c1

>  <UNITS TEXT>
nM

>  <REPORTED>
102

$$$$

----------
Here, each record is paired with measured IC50 data.
System: MDA-MB-231
Assay: Antiproliferative activity against human MDA-MB-231 cells after 48 hrs by MTT assay
Assay type: functional, cell-based
Details: MDA-MB-231, 48 h

>  <SMI>
O=C(N[C@H]1C[C@@H](C(=O)NO)N(S(=O)(=O)c2ccc(Oc3ccccc3)cc2)C1)c1ccc2no[n+]([O-])c2c1

>  <EXPERIMENTAL TARGET>
MDA-MB-231

>  <VALUE COMPARATOR>
=

>  <IC50 / µM>
7.01

$$$$
>  <SMI>
COc1ccc(/C=C/C(=O)N2C[C@@H](NC(=O)c3ccc4no[n+]([O-])c4c3)C[C@H]2C(=O)NO)cc1OC

>  <EXPERIMENTAL TARGET>
MDA-MB-231

>  <VALUE COMPARATOR>
=

>  <IC50 / µM>
9.81

$$$$
>  <SMI>
COc1ccc(/C=C/C(=O)N2C[C@@H](NC(=O)c3cccc4no[n+]([O-])c34)C[C@H]2C(=O)NO)cc1OC

>  <EXPERIMENTAL TARGET>
MDA-MB-231

>  <VALUE COMPARATOR>
=

>  <IC50 / µM>
16.5

$$$$
>  <SMI>
COc1ccc(/C=C/C(=O)N2C[C@@H](NC(=O)c3cccnc3)C[C@H]2C(=O)NO)cc1OC

>  <EXPERIMENTAL TARGET>
MDA-MB-231

>  <VALUE COMPARATOR>
>

>  <IC50 / µM>
200

$$$$
>  <SMI>
O=C(N[C@H]1C[C@@H](C(=O)NO)N(S(=O)(=O)c2ccc(Oc3ccccc3)cc2)C1)c1cccc2no[n+]([O-])c12

>  <EXPERIMENTAL TARGET>
MDA-MB-231

>  <VALUE COMPARATOR>
=

>  <IC50 / µM>
4.19

$$$$

----------
Test system: K562
Test: Antiproliferative activity against human K562 cells after 48 hrs by MTT assay
Type: functional, cell-based
Details: K562, 48 h

>  <SMI>
COc1ccc(/C=C/C(=O)N2C[C@@H](NC(=O)c3ccc4no[n+]([O-])c4c3)C[C@H]2C(=O)NO)cc1OC

>  <EXPERIMENTAL TARGET>
K562

>  <VALUE COMPARATOR>
=

>  <IC50 [µM]>
4.61

$$$$
>  <SMI>
O=C(N[C@H]1C[C@@H](C(=O)NO)N(S(=O)(=O)c2ccc(Oc3ccccc3)cc2)C1)c1ccc2no[n+]([O-])c2c1

>  <EXPERIMENTAL TARGET>
K562

>  <VALUE COMPARATOR>
=

>  <IC50 [µM]>
3.56

$$$$
>  <SMI>
COc1ccc(/C=C/C(=O)N2C[C@@H](NC(=O)c3cccnc3)C[C@H]2C(=O)NO)cc1OC

>  <EXPERIMENTAL TARGET>
K562

>  <VALUE COMPARATOR>
>

>  <IC50 [µM]>
200

$$$$
>  <SMI>
O=C(N[C@H]1C[C@@H](C(=O)NO)N(S(=O)(=O)c2ccc(Oc3ccccc3)cc2)C1)c1cccc2no[n+]([O-])c12

>  <EXPERIMENTAL TARGET>
K562

>  <VALUE COMPARATOR>
=

>  <IC50 [µM]>
4.58

$$$$
>  <SMI>
COc1ccc(/C=C/C(=O)N2C[C@@H](NC(=O)c3cccc4no[n+]([O-])c34)C[C@H]2C(=O)NO)cc1OC

>  <EXPERIMENTAL TARGET>
K562

>  <VALUE COMPARATOR>
=

>  <IC50 [µM]>
11.2

$$$$

----------
Target: UniProt P14780
Sequence (P14780 whole entry): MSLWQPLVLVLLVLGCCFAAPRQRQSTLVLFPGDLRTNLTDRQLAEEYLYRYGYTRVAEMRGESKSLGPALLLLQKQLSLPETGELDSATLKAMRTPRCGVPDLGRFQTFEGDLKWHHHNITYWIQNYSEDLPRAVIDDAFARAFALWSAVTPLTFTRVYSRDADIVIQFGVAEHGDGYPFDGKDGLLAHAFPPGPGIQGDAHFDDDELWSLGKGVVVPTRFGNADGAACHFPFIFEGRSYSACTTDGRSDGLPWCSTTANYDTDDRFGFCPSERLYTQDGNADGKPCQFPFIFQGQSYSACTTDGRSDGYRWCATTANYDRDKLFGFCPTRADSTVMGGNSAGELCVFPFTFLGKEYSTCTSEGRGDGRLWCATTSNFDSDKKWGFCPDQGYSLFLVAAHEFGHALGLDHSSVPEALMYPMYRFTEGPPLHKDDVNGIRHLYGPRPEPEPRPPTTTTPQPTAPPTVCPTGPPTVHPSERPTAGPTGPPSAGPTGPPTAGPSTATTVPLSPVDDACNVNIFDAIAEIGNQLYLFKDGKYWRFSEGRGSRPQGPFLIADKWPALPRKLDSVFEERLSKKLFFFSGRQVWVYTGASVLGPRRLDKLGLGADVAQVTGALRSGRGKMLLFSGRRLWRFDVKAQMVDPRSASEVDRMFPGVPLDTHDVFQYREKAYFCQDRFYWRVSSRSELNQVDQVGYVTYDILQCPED
Experiment: Inhibition of recombinant human MMP9 (Phe107 to Pro449 residues) expressed in Escherichia coli preincubated for 45 mins followed by […] substrate addition by fluorescence assay
pIC50: −log10 of the molar value.
Here, each record is paired with measured pIC50 data.
OBSERVATION TYPE: pIC50

>  <SMI>
O=C(N[C@H]1C[C@@H](C(=O)NO)N(S(=O)(=O)c2ccc(Oc3ccccc3)cc2)C1)c1ccc2no[n+]([O-])c2c1

>  <OBSERVATION TYPE>
pIC50

>  <REPORTED>
6.79

$$$$
>  <SMI>
O=C(N[C@H]1C[C@@H](C(=O)NO)N(S(=O)(=O)c2ccc(Oc3ccccc3)cc2)C1)c1cccc2no[n+]([O-])c12

>  <OBSERVATION TYPE>
pIC50

>  <REPORTED>
6.62

$$$$
>  <SMI>
COc1ccc(/C=C/C(=O)N2C[C@@H](NC(=O)c3cccnc3)C[C@H]2C(=O)NO)cc1OC

>  <OBSERVATION TYPE>
pIC50

>  <REPORTED>
6.44

$$$$
>  <SMI>
COc1ccc(/C=C/C(=O)N2C[C@@H](NC(=O)c3cccc4no[n+]([O-])c34)C[C@H]2C(=O)NO)cc1OC

>  <OBSERVATION TYPE>
pIC50

>  <REPORTED>
6.28

$$$$
>  <SMI>
COc1ccc(/C=C/C(=O)N2C[C@@H](NC(=O)c3ccc4no[n+]([O-])c4c3)C[C@H]2C(=O)NO)cc1OC

>  <OBSERVATION TYPE>
pIC50

>  <REPORTED>
6.41

$$$$
